Numbers sourced from the supplement of paper PMC10567573.

B1: GFOD1 (parent)
chain: EEAEELAKEMSVPFYTSRIDEVLL

# Variants of: B1
# test_details: protein stability index of a GFP-peptide fusion (GPS, HEK-293T) (PSI 1-6); higher = more stable;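 note: lentivirally expressed fusions sorted by FACS into six bins by GFP to DsRed ratio, PSI derived from sequencing read proportions per bin multiplied by bin number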
# experimental_parameters: c terminus: a fixed tail appended
measurement_type: protein stability index

{"columns": ["biopolymer_sequence", "measured_number"],
 "data": [
  ["EEAEELAKEMSVPFYTSYIDEVLL", 4.04],
  ["EEAEELAKETSVPFYTSRIDEVLL", 4.03],
  ["EEAEELAKEMSRPFYTSRIDEVLL", 3.89],
  ["EEAEELAKEMSVPFYTSRIDDVLL", 4.08],
  ["EEAEELAKEKSVPFYTSRIDEVLL", 4.03],
  ["EEANELAKEMSVPFYTSRIDEVLL", 3.92]
]}
